Below, each entry is listed with its recorded pest or weed control at 100 g/ha.
# Test system: Phytophthora infestans
# assay-details: whole plant or invertebrate
# Type: in vivo
# run-conditions: in Solanum lycopersicum, 72 h, read-out: Efficacy
outcome-measure: pest or weed control at 100 g/ha (%)

[[record]]
line_notation = "Cc1ccc(Oc2noc(=O)n2S(C)(=O)=O)c(C)c1"
recorded_result = 92

[[record]]
line_notation = "CCS(=O)(=O)n1c(Oc2cc(C)ccc2C)noc1=O"
recorded_result = 95

[[record]]
line_notation = "CN(C)S(=O)(=O)n1c(Oc2ccc(Br)cc2)noc1=O"
recorded_result = 94

[[record]]
line_notation = "Cc1ccc(Oc2noc(=O)n2S(=O)(=O)N(C)C)c(C)c1"
recorded_result = 97

[[record]]
line_notation = "CCS(=O)(=O)n1c(Oc2ccc(C)cc2C)noc1=O"
recorded_result = 97

[[record]]
line_notation = "Cc1ccc(C)c(Oc2noc(=O)n2S(=O)(=O)N(C)C)c1"
recorded_result = 99

[[record]]
line_notation = "COc1ccc(Oc2noc(=O)n2S(=O)(=O)N(C)C)cc1"
recorded_result = 92

[[record]]
line_notation = "CN(C)S(=O)(=O)n1c(Oc2ccccc2)noc1=O"
recorded_result = 95

[[record]]
line_notation = "Cc1ccc(Oc2noc(=O)n2S(=O)(=O)N(C)C)cc1C"
recorded_result = 99

